These data points were gathered from patent US20250171418A1.

- TARGET: MDR1 (Homo sapiens)
- Construct: expressed in transfected cells; host or cells: MDCKII (Madin-Darby canine kidney) cells
- Sequence (P08183 whole entry): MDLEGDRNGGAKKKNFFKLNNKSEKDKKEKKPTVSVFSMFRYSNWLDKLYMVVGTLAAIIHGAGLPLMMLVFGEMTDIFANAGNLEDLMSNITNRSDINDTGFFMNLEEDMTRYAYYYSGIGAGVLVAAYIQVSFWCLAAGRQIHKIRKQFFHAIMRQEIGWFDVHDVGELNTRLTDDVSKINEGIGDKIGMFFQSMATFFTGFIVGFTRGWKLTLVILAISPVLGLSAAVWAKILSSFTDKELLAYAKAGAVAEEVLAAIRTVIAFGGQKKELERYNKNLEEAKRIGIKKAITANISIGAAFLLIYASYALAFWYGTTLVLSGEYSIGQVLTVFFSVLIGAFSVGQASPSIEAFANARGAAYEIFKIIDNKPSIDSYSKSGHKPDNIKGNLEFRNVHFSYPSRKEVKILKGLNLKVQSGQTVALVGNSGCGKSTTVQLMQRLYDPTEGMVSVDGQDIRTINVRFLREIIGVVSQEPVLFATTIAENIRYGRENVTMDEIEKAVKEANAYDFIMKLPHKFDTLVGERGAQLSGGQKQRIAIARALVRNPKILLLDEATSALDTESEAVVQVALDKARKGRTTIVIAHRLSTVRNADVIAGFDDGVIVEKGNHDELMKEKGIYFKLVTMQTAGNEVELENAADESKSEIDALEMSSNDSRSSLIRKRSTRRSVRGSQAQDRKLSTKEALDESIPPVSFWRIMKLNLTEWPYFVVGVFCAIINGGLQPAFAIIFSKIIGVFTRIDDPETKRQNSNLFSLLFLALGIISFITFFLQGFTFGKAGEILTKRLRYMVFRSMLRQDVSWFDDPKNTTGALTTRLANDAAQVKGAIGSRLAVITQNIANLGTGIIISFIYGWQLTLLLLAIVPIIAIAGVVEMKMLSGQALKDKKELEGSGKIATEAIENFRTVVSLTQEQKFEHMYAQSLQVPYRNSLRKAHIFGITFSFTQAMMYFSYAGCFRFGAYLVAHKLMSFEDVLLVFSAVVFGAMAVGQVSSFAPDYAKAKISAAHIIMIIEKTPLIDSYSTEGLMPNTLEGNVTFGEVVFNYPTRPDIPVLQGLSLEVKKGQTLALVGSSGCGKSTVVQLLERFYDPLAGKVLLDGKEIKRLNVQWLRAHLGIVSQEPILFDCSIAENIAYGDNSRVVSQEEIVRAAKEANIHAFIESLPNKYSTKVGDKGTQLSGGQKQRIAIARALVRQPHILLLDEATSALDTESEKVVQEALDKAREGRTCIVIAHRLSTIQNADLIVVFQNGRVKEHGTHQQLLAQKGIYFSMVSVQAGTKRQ
- ASSAY REMARKS: In vitro human transporter efflux, MDCKII cells expressing MDR1
- Format: in vitro ADME
- CONDITION SET: MDCK-MDR1, pH 7.4, Efflux ratio=Papp(B→A)/Papp(A→B)
Readings of efflux ratio at 2 h, 10 μM for the listed molecules
RECORDED METRIC: efflux ratio at 2 h, 10 μM

Cc1nc2ccc(CN3CCN(c4ccc(C(=O)NC5CC5)nc4F)CC3)c(F)c2[nH]c1=O [Example 1]	1.82
Cc1nc2ccc(CN3CCN(c4ccc(C(=O)NCC(F)F)nc4F)CC3)c(F)c2[nH]c1=O [Example 19]	0.87

###

- Tested on: MDA-MB-436 (mutated BRCA1) cell lines
- ASSAY REMARKS: Cell growth inhibition assay (CellTiter-Glo cell viability)
- Assay type: cell-based
- CONDITION SET: Homo sapiens, 168 h; MDA-MB-436 cells, 7 days, CellTiter Glo 2.0
pEC50: −log10 of the molar value.
Classify as follows. Reported pEC50 greater than or equal to 8: Criterion met. Reported pEC50 below: Criterion not met.

CCc1nc2ccc([C@@H](C)N3CCN(c4ccc(C(=O)NC)nc4F)CC3)c(F)c2[nH]c1=O (single isomer, unassigned)	Criterion met
Cc1nc2ccc(CN3CCN(c4ccc(C(=O)NC5CC5)nc4)[C@H]4C[C@H]43)c(F)c2[nH]c1=O (single isomer, unassigned)	Criterion not met
CNC(=O)c1ccc(N2CCN([C@H](C)c3ccc4nc(C)c(=O)[nH]c4c3F)CC2)c(F)n1 (single isomer, unassigned)	Criterion not met

###

- Tested on: MDA-MB-436 (mutated BRCA1) cell lines
- ASSAY REMARKS: Cell growth inhibition assay (CellTiter-Glo cell viability)
- Type: cell-based
- CONDITION SET: Homo sapiens, 168 h; MDA-MB-436 cells, 7 days, CellTiter Glo 2.0
pEC50: −log10 of the molar value.
# pEC50 per entry
RECORDED METRIC: pEC50

CNC(=O)c1ccc(C2CCN(Cc3ccc4nc(C)c(=O)[nH]c4c3F)CC2)c(F)n1	7.96
Cc1nc2ccc(CN3CC=C(c4ccc(C(=O)NC5CC5)nc4F)CC3)c(F)c2[nH]c1=O	7.64
Cc1nc2ccc(CN3CCN(c4ccc(C(=O)NC56CC(C5)C6)nc4F)CC3)c(F)c2[nH]c1=O	8.43
Cc1nc2ccc(CN3CCN(c4ccc(C(=O)N[C@@H]5CC5(F)F)nc4F)CC3)c(F)c2[nH]c1=O (single isomer, unassigned)	8.70
CCc1nc2ccc([C@H](C)N3CCN(c4ccc(C(=O)NC)nc4F)CC3)c(F)c2[nH]c1=O (single isomer, unassigned)	8.17

###

- System: DLD-1 BRCA2(−/−)
- ASSAY REMARKS: Cell growth inhibition assay (CellTiter-Glo cell viability)
- Assay type: cell-based
- CONDITION SET: Homo sapiens, DLD-1, 168 h, DLD-1 BRCA2(−/−) cells, 7 days, CellTiter Glo 2.0
pEC50: −log10 of the molar value.
RECORDED METRIC: pEC50

CCc1nc2ccc(CN3CCN(c4ccc(C(=O)NC5CC5)nc4F)CC3)c(F)c2[nH]c1=O	8.55
Cc1nc2ccc([C@@H](C)N3CCN(c4ccc(C(=O)NC5CC5)nc4F)CC3)c(F)c2[nH]c1=O (single isomer, unassigned)	7.46
Cc1nc2ccc(CN3CCN(c4ccc(C(=O)NC56CC(C5)C6)nc4F)CC3)c(F)c2[nH]c1=O	8.28
Cc1nc2ccc(CN3CCN(c4ccc(C(=O)N[C@H]5C[C@H](F)C5)nc4F)CC3)c(F)c2[nH]c1=O	8.17
CCc1nc2ccc([C@H](C)N3CCN(c4ccc(C(=O)NC)nc4F)CC3)c(F)c2[nH]c1=O (single isomer, unassigned)	8.11
CCc1nc2ccc(CN3CCN(c4ccc(C(=O)NCCOC)nc4F)CC3)c(F)c2[nH]c1=O	8.15
Cc1nc2ccc(CN3CCN(c4ccc(C(=O)NC5CC(F)(F)C5)nc4F)CC3)c(F)c2[nH]c1=O	8.36
Cc1nc2ccc(CN3CCN(c4ccc(C(=O)NCC(F)F)nc4F)CC3)c(F)c2[nH]c1=O	8.41
Cc1nc2ccc([C@H](C)N3CCN(c4ccc(C(=O)NC5CC5)nc4)CC3)c(F)c2[nH]c1=O (single isomer, unassigned)	6.01
CCc1nc2ccc([C@@H](C)N3CCN(c4ccc(C(=O)NC)nc4F)CC3)c(F)c2[nH]c1=O (single isomer, unassigned)	8.06
CNC(=O)c1ccc(C2=CCN(Cc3ccc4nc(C)c(=O)[nH]c4c3F)CC2)c(F)n1	7.82
Cc1nc2ccc(CN3CC=C(c4ccc(C(=O)NC5CC5)nc4F)CC3)c(F)c2[nH]c1=O	7.68
CNC(=O)c1ccc(N2CCN(Cc3ccc4nc(C)c(=O)[nH]c4c3F)[C@H]3C[C@H]32)c(F)n1 (relative stereo)	8.46

###

- System: DLD-1 BRCA2(−/−)
- ASSAY REMARKS: Cell growth inhibition assay (CellTiter-Glo cell viability)
- Format: cell-based
- CONDITION SET: Homo sapiens, DLD-1, 168 h, DLD-1 BRCA2(−/−) cells, 7 days, CellTiter Glo 2.0
RECORDED METRIC: EC50 (nM)

Cc1nc2ccc([C@H](C)N3CCN(c4ccc(C(=O)NC5CC5)nc4F)CC3)c(F)c2[nH]c1=O (single isomer, unassigned) [Example 24]	20
Cc1nc2ccc(CN3CCN(c4ccc(C(=O)NC5CC5)nc4)[C@H]4C[C@H]43)c(F)c2[nH]c1=O (single isomer, unassigned) [Example 6]	84
CNC(=O)c1ccc(N2CCN(Cc3ccc4nc(C)c(=O)[nH]c4c3F)C[C@H]2C)c(F)n1 [Example 3]	17

###

Here the recorded EC50 is given for each entry.
- Tested on: MDA-MB-436 (mutated BRCA1) cell lines
- ASSAY REMARKS: Cell growth inhibition assay (CellTiter-Glo cell viability)
- Format: cell-based
- CONDITION SET: Homo sapiens, 168 h; MDA-MB-436 cells, 7 days, CellTiter Glo 2.0
RECORDED METRIC: EC50 (nM)

COCCNC(=O)c1ccc(N2CCN(Cc3ccc4nc(C)c(=O)[nH]c4c3F)CC2)c(F)n1 [Example 10]	8.1
CNC(=O)c1ccc(N2CCN([C@@H](C)c3ccc4nc(C)c(=O)[nH]c4c3F)CC2)c(F)n1 (single isomer, unassigned) [Example 22]	14
CNC(=O)c1ccc(N2CCN(Cc3ccc4nc(C)c(=O)[nH]c4c3F)[C@H]3C[C@H]32)c(F)n1 (relative stereo) [Example 2]	7
